Tested on: VCaP cells
experimentSummary: Cytotoxicity assessment (Cell-titer-glo cell viability), VCaP
experimentalContext: read-out: VCaP (CC50); VCaP cells, 6 days of treatment, Cell-titer-glo, vs DMSO
Please assign Condition not met whenever CC50 is at or above 50 nM, and Condition met whenever it is below.

- compound: "CC1(C)C(NC(=O)c2ccc(N3CC4CN(CC5CCN(C(=O)C6CCN(c7ccc8nnn(C9CCC(=O)NC9=O)c(=O)c8c7)CC6)CC5)CC4C3)cc2)C(C)(C)C1Oc1ccc(C#N)c(Cl)c1 (centres unmarked) [Example 139]"
  discreteLabel: "Condition not met"
- compound: "CC1(C)C(NC(=O)c2ccc(N3CCN(CCCOC4CCN(C(=O)CNc5ccc6nnn(C7CCC(=O)NC7=O)c(=O)c6c5)CC4)CC3)cc2)C(C)(C)C1Oc1ccc(C#N)c(Cl)c1 (centres unmarked) [Example 37]"
  discreteLabel: "Condition met"
- compound: "CC1(C)C(NC(=O)c2ccc(-n3cc(CCNC(=O)C4CN(c5ccc6nnn(C7CCC(=O)NC7=O)c(=O)c6c5)C4)nn3)cc2)C(C)(C)C1Oc1ccc(C#N)c(Cl)c1 (centres unmarked) [Example 155]"
  discreteLabel: "Condition not met"
- compound: "CC1(C)C(NC(=O)c2ccc(C#CC3CCN(CC4CCN(C(=O)CNc5ccc6nnn(C7CCC(=O)NC7=O)c(=O)c6c5)CC4)CC3)nc2)C(C)(C)C1Oc1ccc(C#N)c(Cl)c1 (centres unmarked) [Example 132]"
  discreteLabel: "Condition met"
- compound: "CC1(C)[C@H](NC(=O)c2ccc(N3CCN(C4CC5(CCN(c6cccc7nnn(C8CCC(=O)NC8=O)c(=O)c67)CC5)C4)CC3)cc2)C(C)(C)[C@H]1Oc1ccc(C#N)c(Cl)c1 (some centres unmarked) [Example 22]"
  discreteLabel: "Condition not met"
- compound: "CC1(C)C(NC(=O)c2ccc(C#CCC3CCN(C4CCN(c5ccc6nnn(C7CCC(=O)NC7=O)c(=O)c6c5)CC4)CC3)cc2)C(C)(C)C1Oc1ccc(C#N)c(Cl)c1 (centres unmarked) [Example 89]"
  discreteLabel: "Condition not met"
- compound: "CC1(C)C(NC(=O)c2ccc(-n3cc(CCNC(=O)CNc4ccc5nnn(C6CCC(=O)NC6=O)c(=O)c5c4)nn3)cc2)C(C)(C)C1Oc1ccc(C#N)c(Cl)c1 (centres unmarked) [Example 156]"
  discreteLabel: "Condition not met"
- compound: "CC1(C)C(NC(=O)c2ccc(N3CCN(CC4CCN(CCNC(=O)C5CCN(c6ccc7nnn(C8CCC(=O)NC8=O)c(=O)c7c6)CC5)CC4)CC3)cc2)C(C)(C)C1Oc1ccc(C#N)c(Cl)c1 (centres unmarked) [Example 68]"
  discreteLabel: "Condition not met"
- compound: "CC1(C)C(NC(=O)c2ccc(N3CCN(CCCC4CCN(C(=O)C5CCN(c6ccc7nnn(C8CCC(=O)NC8=O)c(=O)c7c6)CC5)CC4)CC3)cc2)C(C)(C)C1Oc1ccc(C#N)c(Cl)c1 (centres unmarked) [Example 46]"
  discreteLabel: "Condition not met"
- compound: "CC1(C)[C@H](NC(=O)c2ccc(N3CCN(C(=O)CNc4ccc5nnn(C6CCC(=O)NC6=O)c(=O)c5c4)CC3)cc2)C(C)(C)[C@H]1Oc1ccc(C#N)c(Cl)c1 (some centres unmarked) [Example 40]"
  discreteLabel: "Condition met"
- compound: "CC1(C)C(NC(=O)c2ccc(CCN3CC4CN(C(=O)C5CN(c6ccc7nnn(C8CCC(=O)NC8=O)c(=O)c7c6)C5)CC4C3)cc2)C(C)(C)C1Oc1ccc(C#N)c(Cl)c1 (centres unmarked) [Example 94]"
  discreteLabel: "Condition met"
- compound: "CC1(C)C(NC(=O)c2ccc(-n3cc(CC4CCN(C(=O)CNc5ccc6nnn(C7CCC(=O)NC7=O)c(=O)c6c5)CC4)nn3)cc2)C(C)(C)C1Oc1ccc(C#N)c(Cl)c1 (centres unmarked) [Example 106]"
  discreteLabel: "Condition met"
- compound: "CC1(C)C(NC(=O)c2ccc(CCN3CCN(CC4CCN(C(=O)C5CCN(c6ccc7nnn(C8CCC(=O)NC8=O)c(=O)c7c6)CC5)CC4)CC3)cc2)C(C)(C)C1Oc1ccc(C#N)c(Cl)c1 (centres unmarked) [Example 108]"
  discreteLabel: "Condition met"
- compound: "CC1(C)C(NC(=O)c2ccc(C#CCC3CCN(CC4CCN(C(=O)C5CN(c6ccc7nnn(C8CCC(=O)NC8=O)c(=O)c7c6)C5)CC4)CC3)cc2)C(C)(C)C1Oc1ccc(C#N)c(Cl)c1 (centres unmarked) [Example 117]"
  discreteLabel: "Condition met"
- compound: "CC1(C)[C@H](NC(=O)c2ccc(C#CCC3CCN(C(=O)C4CCN(c5ccc6nnn(C7CCC(=O)NC7=O)c(=O)c6c5)CC4)CC3)cc2)C(C)(C)[C@H]1Oc1ccc(C#N)c(Cl)c1 (some centres unmarked) [Example 86]"
  discreteLabel: "Condition met"
- compound: "CC1(C)C(NC(=O)c2ccc(-c3cnn(C4CCN(CC5CCN(C(=O)COc6ccc7nnn(C8CCC(=O)NC8=O)c(=O)c7c6)CC5)CC4)c3)cc2)C(C)(C)C1Oc1ccc(C#N)c(Cl)c1 (centres unmarked) [Example 113]"
  discreteLabel: "Condition met"
- compound: "CC1(C)C(NC(=O)c2ccc(-n3cc(CNC(=O)C4CN(c5ccc6nnn(C7CCC(=O)NC7=O)c(=O)c6c5)C4)nn3)cc2)C(C)(C)C1Oc1ccc(C#N)c(Cl)c1 (centres unmarked) [Example 151]"
  discreteLabel: "Condition met"
- compound: "CC1(C)C(NC(=O)c2ccc(C#CCC3CCN(CC4CCN(C(=O)C5CN(c6ccc7nnn(C8CCC(=O)NC8=O)c(=O)c7c6)C5)CC4)CC3)nc2)C(C)(C)C1Oc1ccc(C#N)c(Cl)c1 (centres unmarked) [Example 127]"
  discreteLabel: "Condition met"
